Measured values drawn from PubChem BioAssay (NCI) for this set.

# Tested on: NCI-H23 lung
# EXPERIMENT_SUMMARY: NCI-60 one-dose screen, 48 h (100 = growth as untreated, 0 = no growth, -100 = all killed)
# SETTINGS: 10 µM unless noted
Compounds without any hit were thinned out: in the full panel of roughly 83,000, 20% have a hit.
ENDPOINT: growth (%)
Give the number; % is assumed, so skip it.

Observe how each entry below is paired with its result.
INSERT INTO assay_data (compound, target_system, result_number) VALUES
  ('OC(c1ccccc1)(c1ccccc1)C(F)(F)F', 'NCI-H23 lung', 97.4),
  ('CCCCCCCCCCCCCCCCNC(=S)N/N=C/c1ccc(O)cc1O', 'NCI-H23 lung', 77.1),
  ('Clc1ccc(N/N=C(/c2ccccc2)c2ccccn2)nc1', 'NCI-H23 lung', 29.7),
  ('CC1(c2ccc(Br)cc2)NC(=O)NC1=O (stereo not drawn)', 'NCI-H23 lung', 105),
  ('CC(C)(C)C(=O)OCOP(=O)(OCOC(=O)C(C)(C)C)C1CC(O)N(O)C1=O (stereo not drawn)', 'NCI-H23 lung', 21),
  ('COc1ccc2sc(-n3nc4nc5n(c(=O)c4c3N)-c3ccccc3Sc3ccccc3-5)nc2c1', 'NCI-H23 lung', 79.2),
  ('CC(=O)c1ccc2c(c1)c1ccccc1n2C', 'NCI-H23 lung', 94.1),
  ('COc1ccc(-n2nnnc2-c2cn[nH]c2C(F)(F)F)cc1', 'NCI-H23 lung', 128);

Exam item: What growth value was documented for this compound, Cc1ncc(C(=O)Nc2ccc(CN3CCN(C)CC3)c(C(F)(F)F)c2)cc1C#Cc1cnc(NC2CC2)c2ncccc12 ?
Marked response: -70.8

Exam item: What growth value was documented for this compound, CCOC(=O)CCCCCCCCC(=O)OCC ?
Marked response: 96.3
